- Measured On: human PDHK2 (hPDHK2) (Homo sapiens (Human))
- Method Notes: Inhibitory action of PDHK2 activity (PDH/hPDHK2 complex, residual PDH activity by NADH absorbance at 340 nm)
- Measurement Parameters: FLAG-tagged recombinant hPDHK2 with porcine heart PDH complex; PDHK reaction 45 min at room temperature
pIC50: −log10 of the molar value.
Measured Property: pIC50

For orientation, consider the following solved cases.
INSERT INTO results (compound, quantitative_readout) VALUES
  ('C[C@H]1Cc2nn([C@H]3CC[C@](C)(O)CC3)cc2-c2onc([C@@](C)(O)C(F)(F)F)c21 (racemic) [Example 55]', 7.84),
  ('COC(=O)C12CCC(c3nnc4n3C[C@H](C)c3c([C@@](C)(O)C(F)(F)F)noc3-4)(CC1)CC2', 8.18),
  ('COC(=O)C12CC(c3nnc4n3C[C@H](C)c3c([C@@](C)(O)C(F)(F)F)noc3-4)(C1)C2', 8.03),
  ('C[C@H]1Cc2c(cnn2C(C)(C)C)-c2onc([C@@](C)(O)C(F)(F)F)c21 (racemic)', 7.91);

a. C[C@H]1Cn2c(-c3ccc(F)cc3)nnc2-c2onc([C@@](C)(O)C(F)(F)F)c21
b. C[C@H]1Cn2nc(C34CCC(C#N)(CC3)OC4)cc2-c2cnc([C@@](C)(O)C(F)(F)F)n21
In terms of reported pIC50, does a or b have the smaller number? Record your answer as the label of the chosen record. b

----------
- Measured On: human PDHK2 (hPDHK2) (Homo sapiens (Human))
- Method Notes: Inhibitory action of PDHK2 activity (PDH/hPDHK2 complex, residual PDH activity by NADH absorbance at 340 nm)
- Measurement Parameters: FLAG-tagged recombinant hPDHK2 with porcine heart PDH complex; PDHK reaction 45 min at room temperature
Measured Property: IC50 (µM)

Known results for compounds:
INSERT INTO assay_data (compound, measured_property, quantitative_readout) VALUES
  ('COCCOc1cc2n(n1)C[C@@H](C)c1c([C@](C)(O)C(F)(F)F)noc1-2', 'IC50', 0.0282),
  ('C[C@H]1Cn2nc(C3(F)CC3)cc2-c2cnnc([C@@](C)(O)C(F)(F)F)c21 (racemic)', 'IC50', 0.0292),
  ('C[C@H]1Cn2nc(N3CC4C(C3)C4(F)F)cc2-c2cnc([C@@](C)(O)C(F)(F)F)n21 (stereo partly drawn)', 'IC50', 0.0151),
  ('C[C@H]1Cn2nc(OCF)cc2-c2onc([C@@](C)(O)C(F)(F)F)c21 (racemic) [Example 44]', 'IC50', 0.0183),
  ('C[C@H]1Cn2nc(OCCC(C)(C)O)cc2-c2onc([C@@](C)(O)C(F)(F)F)c21 [Example 62]', 'IC50', 0.008),
  ('C[C@H]1Cn2nc(N3CCOCC3)cc2-c2cnc([C@@](C)(O)C(F)(F)F)n21', 'IC50', 0.0184),
  ('C[C@H]1Cn2nc(OCC(C)(C)O)cc2-c2onc([C@@](C)(O)C(F)(F)F)c21 [Example 31]', 'IC50', 0.0137),
  ('C[C@H]1Cn2nc(OC(F)F)cc2-c2onc([C@@](C)(O)C(F)(F)F)c21 (racemic)', 'IC50', 0.0264);

1. C[C@H]1Cn2nc(OCC34CC(C#N)(C3)C4)cc2-c2cnc([C@@](C)(O)C(F)(F)F)n21
2. C[C@H]1Cc2nn(CCC#N)cc2-c2onc([C@@](C)(O)C(F)(F)F)c21 (racemic)
Between the two listed entries 1 and 2 , which has its IC50 at the higher number? Answer format: the label of the selected item. 2
(2: 0.0201 µM, 1: 0.0088 µM)

I. C[C@H]1Cn2nc(O[C@H]3C[C@@](C)(C#N)C3)cc2-c2onc([C@@](C)(O)C(F)(F)F)c21 (racemic)
II. C[C@H]1Cn2c(nnc2C23CC(C(C)(C)O)(C2)C3)-c2onc([C@@](C)(O)C(F)(F)F)c21
Lab notebook, comparison: I versus II , higher IC50 goes to which? Identify your selection by its label. I
(I: 0.0181 µM, II: 0.0075 µM)

I. C[C@H]1Cn2nc(N3CCC4(CC3)COC4)cc2-c2cnc([C@@](C)(O)C(F)(F)F)n21
II. C[C@H]1Cn2nc(C34CC(CO)(C3)C4)cc2-c2cnc([C@@](C)(O)C(F)(F)F)n21
III. C[C@H]1Cn2nc(O[C@H]3C[C@](C)(C#N)C3)cc2-c2onc([C@@](C)(O)C(F)(F)F)c21 [Example 63]
Arrange these 3 compounds in increasing order of IC50. State the ranking by listing the labels in the requested order. III, I, II
(III: 0.0091 µM, I: 0.0144 µM, II: 0.0212 µM)

Ref: patent US20240417406A1
